- system: full-length beta-Catenin (Uniprot ID P35222) (Homo sapiens, UniProt P35222)
- Construct: 10 nM full-length beta-Catenin (Uniprot ID P35222)
- Sequence (P35222 whole entry): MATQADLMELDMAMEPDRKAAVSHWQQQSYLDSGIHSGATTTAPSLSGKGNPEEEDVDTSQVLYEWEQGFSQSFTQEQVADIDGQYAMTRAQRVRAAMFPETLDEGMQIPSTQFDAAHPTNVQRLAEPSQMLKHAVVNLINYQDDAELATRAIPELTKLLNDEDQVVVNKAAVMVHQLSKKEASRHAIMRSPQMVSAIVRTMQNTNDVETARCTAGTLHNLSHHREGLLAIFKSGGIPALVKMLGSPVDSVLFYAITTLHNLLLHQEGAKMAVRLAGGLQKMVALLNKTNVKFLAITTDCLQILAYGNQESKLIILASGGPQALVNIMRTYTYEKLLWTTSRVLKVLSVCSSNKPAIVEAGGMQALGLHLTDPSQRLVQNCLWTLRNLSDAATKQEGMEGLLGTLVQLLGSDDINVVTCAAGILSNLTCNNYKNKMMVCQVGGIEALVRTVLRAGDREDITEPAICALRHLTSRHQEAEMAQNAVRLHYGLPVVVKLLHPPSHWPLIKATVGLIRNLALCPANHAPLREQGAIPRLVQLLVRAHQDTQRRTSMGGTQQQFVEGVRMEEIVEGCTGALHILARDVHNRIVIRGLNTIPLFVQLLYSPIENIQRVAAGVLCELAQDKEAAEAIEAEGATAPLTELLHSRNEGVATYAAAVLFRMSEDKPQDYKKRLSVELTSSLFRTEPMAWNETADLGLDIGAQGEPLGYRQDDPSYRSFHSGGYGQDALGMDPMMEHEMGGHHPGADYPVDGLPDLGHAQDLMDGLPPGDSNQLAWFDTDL
- assay.overview: Fluorescence polarization IC50 (beta-catenin / 5FAM-TCF4 10-53 competition)
- Type: binding
- condition.notes: read-out: beta-Catenin FP IC50
measurement.name: IC50 (nM)
Give a bare numeral; the unit nM is implied.

Field: example entries. Status: answers known.
CC(=O)N1CCC[C@]12CC=CCCCC1(CCCC=CCCCOC(=O)N3CC[C@@](C(=O)N[C@@H](Cc4ccsc4)C(=O)N[C@@H](Cc4csc5ccccc45)C(=O)N[C@@H](Cc4c[nH]cn4)C(N)=O)(C3)NC(=O)[C@H](CC(N)=O)NC(=O)[C@H](Cc3ccccc3)NC(=O)[C@H](C)NC(=O)[C@H](C)NC(=O)[C@H]([C@@H](C)O)NC(=O)[C@H](CC(=O)O)NC1=O)NC(=O)[C@H](CC(C)(C)C)NC(=O)[C@H](CC(=O)O)NC2=O (stereo partly drawn) [I-845]	7
CC(=O)N1CCC[C@]12CC=CCCCC1(CCCC=CCCCOC(=O)N3CC[C@@](C(=O)N[C@@H](Cc4ccsc4)C(=O)N[C@@H](Cc4csc5ccccc45)C(=O)N[C@@H](C(N)=O)[C@H](C)O)(C3)NC(=O)[C@H](CC(N)=O)NC(=O)[C@H](Cc3ccccc3)NC(=O)[C@H](C)NC(=O)[C@H](C)NC(=O)[C@H](CC(=O)O)NC(=O)[C@H](CC(=O)O)NC1=O)NC(=O)[C@H](CC(C)(C)C)NC(=O)[C@H](CC(=O)O)NC2=O (stereo partly drawn) [I-817]	10

Ask | Indicate the recorded IC50 value for this compound: CC(=O)N1CCC[C@]12CC=CCCCC1(CCCC=CCCCOC(=O)N3CC[C@@](C(=O)N[C@@H](Cc4ccc5ccccc5c4)C(=O)N[C@@H](Cc4csc5ccccc45)C(=O)N[C@@H](Cc4c[nH]cn4)C(N)=O)(C3)NC(=O)[C@H](CC(N)=O)NC(=O)[C@H](Cc3ccccc3)NC(=O)[C@H](C)NC(=O)[C@H](C)NC(=O)[C@H](CC(=O)O)NC(=O)[C@H](CC(=O)O)NC1=O)NC(=O)[C@H](CC(C)(C)C)NC(=O)[C@H](CC(=O)O)NC2=O (stereo partly drawn) [I-795]
Reply | 176

Ask | Indicate the recorded IC50 value for this compound: CC(=O)N1CCC[C@]12CC=CCCCC1(CCCC=CCCCOC(=O)N3CC[C@@](C(=O)N[C@@H](Cc4ccsc4)C(=O)N[C@@H](Cc4csc5ccccc45)C(=O)N[C@@H](Cc4ccc(O)cc4)C(N)=O)(C3)NC(=O)[C@H](CC(N)=O)NC(=O)[C@H](Cc3ccccc3)NC(=O)[C@H](C)NC(=O)[C@H](C)NC(=O)[C@H](CN(CC(=O)O)CC(F)(F)F)NC(=O)[C@H](CC(=O)O)NC1=O)NC(=O)[C@H](CC(C)(C)C)NC(=O)[C@H](CC(=O)O)NC2=O (stereo partly drawn) [I-953]
Reply | 1460

Ask | Indicate the recorded IC50 value for this compound: COc1cccc(C[C@@H]2NC(=O)[C@H](C)NC(=O)[C@H](C)NC(=O)[C@H](CC(=O)O)NC(=O)[C@H](CC(=O)O)NC(=O)C3(CCCC=CCCCOC(=O)N4CC[C@@](C(=O)N[C@@H](Cc5ccccc5Cl)C(=O)N[C@@H](Cc5csc6ccccc56)C(=O)N[C@@H](CCC(N)=O)C(N)=O)(C4)NC(=O)[C@H](CC(C)C)NC2=O)CCCC=CC[C@]2(CCCN2C(C)=O)C(=O)N[C@@H](CC(=O)O)C(=O)N[C@@H](CC(C)(C)C)C(=O)N3)c1 (stereo partly drawn) [I-1121]
Reply | 18

Ask | Indicate the recorded IC50 value for this compound: COCCOCCOCCOCCOCCOCCOCCOCCC(=O)NCCCC[C@H](NC(=O)[C@H](CCC(N)=O)NC(=O)[C@H](Cc1csc2ccccc12)NC(=O)[C@H](Cc1ccsc1)NC(=O)[C@]12CCN(C1)C(=O)OCCCC=CCCCC1(CCCC=CC[C@]3(CCCN3C(C)=O)C(=O)N[C@@H](CC(=O)O)C(=O)N[C@@H](CC(C)(C)C)C(=O)N1)C(=O)N[C@@H](CC(=O)O)C(=O)N[C@@H](CC(=O)O)C(=O)N[C@@H](C)C(=O)N[C@@H](C)C(=O)N[C@@H](Cc1ccccc1)C(=O)N[C@@H](CC(N)=O)C(=O)N2)C(N)=O (stereo partly drawn) [I-914]
Reply | 16

----------
- system: beta-catenin/TCF4 engagement (Homo sapiens, UniProt P35222)
- Construct: expressed in transfected cells; host or cells: HEK293
- assay.overview: Nano-BRET target engagement assay (B-cat-Halo & TCF4-Luc in HEK293 cells)
- Format: cell-based
- condition.notes: read-out: NanoBRET Abs IC50
Entries and their measured pIC50 follow.
Keep in mind that pIC50 stands for -log10 of concentration in molar terms.

CC(=O)N1CCC[C@]12CC=CCCCC1(CCCC=CCCCOC(=O)N3CC[C@@](C(=O)N[C@@H](Cc4ccccc4Cl)C(=O)N[C@@H](Cc4csc5ccccc45)C(=O)N[C@@H](CCC(N)=O)C(N)=O)(C3)NC(=O)[C@H]([C@@H](C)O)NC(=O)[C@H](Cc3ccccc3)NC(=O)[C@H](C)NC(=O)[C@H](C)NC(=O)[C@H](CN(CC(=O)O)CC(F)(F)F)NC(=O)[C@H](CC(=O)O)NC1=O)NC(=O)[C@H](CC(C)(C)C)NC(=O)[C@H](CC(=O)O)NC2=O (some centres unmarked)	5.57

// below: pIC50 requested for another compound
Ask | Indicate the recorded pIC50 value for this compound: CC(=O)N1CCC[C@]12CC=CCCCC1(CCCC=CCCCOC(=O)N3CC[C@@](C(=O)N[C@@H](Cc4ccccc4C(F)(F)F)C(=O)N[C@@H](Cc4csc5ccccc45)C(=O)N[C@@H](CCS(C)(=O)=O)C(N)=O)(C3)NC(=O)[C@H](CC(C)C)NC(=O)[C@H](Cc3ccccc3)NC(=O)[C@H](C)NC(=O)[C@H](C)NC(=O)[C@H](Cc3cccc(C(=O)O)c3)NC(=O)[C@H](CC(=O)O)NC1=O)NC(=O)[C@H](CC(C)(C)C)NC(=O)[C@H](CC(=O)O)NC2=O (some centres unmarked)
Reply | 5.46

----------
- assay.overview: CHI Log D procedure
- Type: physicochemical
- condition.notes: pH 7.4, CHI Log D
measurement.name: chromatographic logD
Output: the number by itself.

Field: example entries. Status: answers known.
CC(=O)N1CCC[C@]12CC=CCCCC1(CCCC=CCCCCCC[C@@](C)(C(=O)N[C@@H](Cc3ccccc3)C(=O)N[C@@H](Cc3c[nH]c4ccccc34)C(=O)N[C@@H](CCC(N)=O)C(N)=O)NC(=O)[C@H](C(C)C)NC(=O)[C@H](Cc3ccccc3)NC(=O)[C@H](C)NC(=O)[C@H](C)NC(=O)[C@H](Cc3ccc(O)cc3)NC(=O)[C@H](CC(=O)O)NC1=O)NC(=O)[C@H](C)NC(=O)[C@H](CC(=O)O)NC2=O (some centres unmarked)	2.62
CC(=O)N1CCC[C@]12CC=CCCCC1(CCCC=CCCCOC(=O)N3CC[C@@](C(=O)N[C@@H](Cc4ccsc4)C(=O)N[C@@H](Cc4c[nH]c5ccccc45)C(=O)N[C@@H](Cc4c[nH]cn4)C(N)=O)(C3)NC(=O)[C@H](CC(N)=O)NC(=O)[C@H](Cc3ccccc3)NC(=O)[C@H](C)NC(=O)[C@H](C)NC(=O)[C@H](CC(=O)O)NC(=O)[C@H](CC(=O)O)NC1=O)NC(=O)[C@H](CC(C)(C)C)NC(=O)[C@H](CC(=O)O)NC2=O (some centres unmarked)	1.96
CC(=O)N1CCC[C@]12CC=CCCCC1(CCCC=CCCCCCC[C@@](C)(C(=O)N[C@@H](Cc3ccccc3)C(=O)N[C@@H](Cc3c[nH]c4ccccc34)C(=O)N[C@@H](CCC(N)=O)C(N)=O)NC(=O)[C@H](C(C)C)NC(=O)[C@H](Cc3ccccc3)NC(=O)[C@H](C)NC(=O)[C@H](C)NC(=O)[C@H](CCC(=O)O)NC(=O)[C@H](Cc3c[nH]cn3)NC1=O)NC(=O)[C@H](C)NC(=O)[C@H](CC(=O)O)NC2=O (some centres unmarked)	2.41
CC(=O)N1CCC[C@]12CC=CCCCC1(CCCC=CCOC(=O)N(C)CCC[C@@](C)(C(=O)N[C@@H](Cc3cccc(F)c3)C(=O)N[C@@H](Cc3csc4ccccc34)C(=O)N[C@@H](CCC(N)=O)C(N)=O)NC(=O)[C@H](CCC(N)=O)NC(=O)[C@H](Cc3ccccc3)NC(=O)[C@H](C)NC(=O)[C@H](C)NC(=O)[C@H](Cc3c[nH]cn3)NC(=O)[C@H](CC(=O)O)NC1=O)NC(=O)[C@H](C)NC(=O)[C@H](CC(=O)O)NC2=O (some centres unmarked)	1.92

Ask | Indicate the recorded chromatographic logD value for this compound: CC(=O)N1CCC[C@]12CC=CCCCC1(CCCC=CCCCOC(=O)N3CC[C@@](C(=O)N[C@@H](Cc4ccccc4)C(=O)N[C@@H](Cc4csc5ccccc45)C(=O)N[C@@H](CCC(N)=O)C(N)=O)(C3)NC(=O)[C@H](CC(C)C)NC(=O)[C@H](Cc3cccc(C(F)(F)F)c3)NC(=O)[C@H](C)NC(=O)[C@H](C)NC(=O)[C@H](CC(=O)O)NC(=O)[C@H](CC(=O)O)NC1=O)NC(=O)[C@H](CC(C)(C)C)NC(=O)[C@H](CC(=O)O)NC2=O (some centres unmarked)
Reply | 2.3
